# study_system: GABA A receptor alpha-6/beta-2/gamma-2 (Homo sapiens, UniProt P18507+P47870+Q16445)
# measurement_protocol: Binding affinity for human GABA-A receptor alpha-6-beta-2-gamma-2 expressed in L(tk-) cell membranes

smiles_str	comparison_operator	Ki, µM
CC#Cc1ccc2c(c1)C(=O)N(C)Cc1c(C(=O)OCC)ncn1-2	>	0.1
CN1Cc2c(C(=O)OC(C)(C)C)ncn2-c2ccc(C#C[Si](C)(C)C)cc2C1=O	=	0.0586
C#Cc1ccc2c(c1)C(=O)N(C)Cc1c(C(=O)OCC)ncn1-2	=	0.0288
CCOC(=O)c1ncn2c1CN(C)C(=O)c1cc(C#CC[Si](C)(C)C)ccc1-2	>	0.3

====

# measurement_protocol: Binding affinity for human GABA-A receptor alpha-5--beta-2-gamma-2 expressed in L(tk-) cell membranes
Some compounds, each annotated with its measured Ki.

smiles_str	unit_tag	comparison_operator	Ki
C#Cc1ccc2c(c1)C(=O)N(C)Cc1c(C(=O)OC(C)(C)C)ncn1-2	nM	=	0.4
CCc1ccc2c(c1)C(=O)N(C)Cc1c(C(=O)OC(C)(C)C)ncn1-2	nM	=	1.7
CN1Cc2c(C(=O)OC(C)(C)C)ncn2-c2ccc(C#C[Si](C)(C)C)cc2C1=O	nM	=	2.61
CCOC(=O)c1ncn2c1CN(C)C(=O)c1cc(CC)ccc1-2	nM	=	1.5
CCOC(=O)c1ncn2c1CN(C)C(=O)c1cc(C#CC[Si](C)(C)C)ccc1-2	nM	>	300
CCOC(=O)c1ncn2c1CN(C)C(=O)c1cc(N=[N+]=[N-])ccc1-2	nM	=	0.26
CN1Cc2c(C(=O)OC(C)(C)C)ncn2-c2ccc(Br)cc2C1=O	nM	=	0.5
CC#Cc1ccc2c(c1)C(=O)N(C)Cc1c(C(=O)OCC)ncn1-2	nM	=	1.7
CCOC(=O)c1ncn2c1CN(C)C(=O)c1cc(C#C[Si](C)(C)C)ccc1-2	nM	=	5
C#Cc1ccc2c(c1)C(=O)N(C)Cc1c(C(=O)OCC)ncn1-2	nM	=	0.5

====

Some compounds, each annotated with its measured Ki.
# study_system: GABA A receptor alpha-3/beta-2/gamma-2 (Homo sapiens, UniProt P18507+P34903+P47870)
# measurement_protocol: Binding affinity for human GABA-A receptor alpha-3-beta-2-gamma-2 expressed in L(tk-) cell membranes
measured_attribute: Ki (µM)

smiles_str	study_system	measured_attribute	comparison_operator	meas_value
CN1Cc2c(C(=O)OC(C)(C)C)ncn2-c2ccc(C#C[Si](C)(C)C)cc2C1=O	GABA A receptor alpha-3/beta-2/gamma-2 (Homo sapiens, UniProt P18507+P34903+P47870)	Ki	=	0.255
CCOC(=O)c1ncn2c1CN(C)C(=O)c1cc(C#CC[Si](C)(C)C)ccc1-2	GABA A receptor alpha-3/beta-2/gamma-2 (Homo sapiens, UniProt P18507+P34903+P47870)	Ki	>	0.3
CN1Cc2c(C(=O)OC(C)(C)C)ncn2-c2ccc(Br)cc2C1=O	GABA A receptor alpha-3/beta-2/gamma-2 (Homo sapiens, UniProt P18507+P34903+P47870)	Ki	=	0.0092
CCOC(=O)c1ncn2c1CN(C)C(=O)c1cc(C#C[Si](C)(C)C)ccc1-2	GABA A receptor alpha-3/beta-2/gamma-2 (Homo sapiens, UniProt P18507+P34903+P47870)	Ki	=	0.198
C#Cc1ccc2c(c1)C(=O)N(C)Cc1c(C(=O)OC(C)(C)C)ncn1-2	GABA A receptor alpha-3/beta-2/gamma-2 (Homo sapiens, UniProt P18507+P34903+P47870)	Ki	=	0.0187
CCOC(=O)c1ncn2c1CN(C)C(=O)c1cc(CC)ccc1-2	GABA A receptor alpha-3/beta-2/gamma-2 (Homo sapiens, UniProt P18507+P34903+P47870)	Ki	=	0.0261
CC#Cc1ccc2c(c1)C(=O)N(C)Cc1c(C(=O)OCC)ncn1-2	GABA A receptor alpha-3/beta-2/gamma-2 (Homo sapiens, UniProt P18507+P34903+P47870)	Ki	=	0.0165
CCc1ccc2c(c1)C(=O)N(C)Cc1c(C(=O)OC(C)(C)C)ncn1-2	GABA A receptor alpha-3/beta-2/gamma-2 (Homo sapiens, UniProt P18507+P34903+P47870)	Ki	=	0.0253
C#Cc1ccc2c(c1)C(=O)N(C)Cc1c(C(=O)OCC)ncn1-2	GABA A receptor alpha-3/beta-2/gamma-2 (Homo sapiens, UniProt P18507+P34903+P47870)	Ki	=	0.0258

====

# study_system: GABA-A receptor; alpha-1/beta-2/gamma-2 (Homo sapiens, UniProt P14867+P18507+P47870)
# Sequence (P14867 whole entry): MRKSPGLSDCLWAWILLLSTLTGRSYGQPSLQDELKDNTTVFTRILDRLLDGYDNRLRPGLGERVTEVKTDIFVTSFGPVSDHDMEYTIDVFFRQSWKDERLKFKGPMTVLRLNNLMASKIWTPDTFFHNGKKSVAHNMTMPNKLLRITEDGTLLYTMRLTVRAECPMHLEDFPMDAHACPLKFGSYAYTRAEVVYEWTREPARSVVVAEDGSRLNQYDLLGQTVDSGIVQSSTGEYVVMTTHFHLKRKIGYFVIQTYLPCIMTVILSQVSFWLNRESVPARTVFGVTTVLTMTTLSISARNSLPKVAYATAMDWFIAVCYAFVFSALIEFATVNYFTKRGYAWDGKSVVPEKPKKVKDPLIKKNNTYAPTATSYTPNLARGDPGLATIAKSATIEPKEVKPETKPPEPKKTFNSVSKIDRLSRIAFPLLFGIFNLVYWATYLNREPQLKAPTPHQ
# Sequence (P47870 whole entry): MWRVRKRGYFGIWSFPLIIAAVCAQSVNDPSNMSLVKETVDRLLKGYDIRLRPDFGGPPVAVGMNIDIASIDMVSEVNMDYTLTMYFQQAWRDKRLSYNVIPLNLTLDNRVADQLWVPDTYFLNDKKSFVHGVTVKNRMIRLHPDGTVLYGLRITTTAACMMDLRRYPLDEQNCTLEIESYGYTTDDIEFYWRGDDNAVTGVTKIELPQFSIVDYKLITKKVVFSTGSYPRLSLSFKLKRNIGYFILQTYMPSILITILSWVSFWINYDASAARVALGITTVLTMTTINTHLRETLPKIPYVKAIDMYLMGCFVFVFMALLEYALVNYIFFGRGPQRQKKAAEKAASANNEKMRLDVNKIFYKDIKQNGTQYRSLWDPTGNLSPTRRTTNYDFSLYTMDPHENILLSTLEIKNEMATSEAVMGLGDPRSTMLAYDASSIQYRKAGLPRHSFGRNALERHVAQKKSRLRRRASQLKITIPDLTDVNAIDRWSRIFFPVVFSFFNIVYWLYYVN
# Sequence (P18507 whole entry): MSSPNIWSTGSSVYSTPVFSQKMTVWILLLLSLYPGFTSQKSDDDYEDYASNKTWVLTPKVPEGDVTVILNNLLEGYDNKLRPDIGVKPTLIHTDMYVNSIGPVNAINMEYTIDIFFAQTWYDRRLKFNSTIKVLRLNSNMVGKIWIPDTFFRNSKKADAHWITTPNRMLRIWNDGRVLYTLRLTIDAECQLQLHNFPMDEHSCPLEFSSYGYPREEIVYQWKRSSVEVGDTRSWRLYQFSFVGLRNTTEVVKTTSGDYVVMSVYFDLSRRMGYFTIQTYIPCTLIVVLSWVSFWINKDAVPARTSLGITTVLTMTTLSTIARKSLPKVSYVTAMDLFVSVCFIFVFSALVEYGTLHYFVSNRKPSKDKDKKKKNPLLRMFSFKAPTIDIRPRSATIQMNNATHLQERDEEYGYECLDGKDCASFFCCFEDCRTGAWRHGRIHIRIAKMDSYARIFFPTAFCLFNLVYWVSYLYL
# measurement_protocol: Binding affinity for human GABA-A receptor alpha-1-beta-2-gamma-2 expressed in L(tk-) cell membranes
pKi: −log10 of the molar value.

smiles_str	comparison_operator	pKi
CN1Cc2c(C(=O)OC(C)(C)C)ncn2-c2ccc(C#C[Si](C)(C)C)cc2C1=O	=	6.71
CC#Cc1ccc2c(c1)C(=O)N(C)Cc1c(C(=O)OCC)ncn1-2	=	8.00
C#Cc1ccc2c(c1)C(=O)N(C)Cc1c(C(=O)OC(C)(C)C)ncn1-2	=	7.57
CCOC(=O)c1ncn2c1CN(C)C(=O)c1cc(CC)ccc1-2	=	7.69
CCc1ccc2c(c1)C(=O)N(C)Cc1c(C(=O)OC(C)(C)C)ncn1-2	=	7.83
C#Cc1ccc2c(c1)C(=O)N(C)Cc1c(C(=O)OCC)ncn1-2	=	7.55
CCOC(=O)c1ncn2c1CN(C)C(=O)c1cc(C#CC[Si](C)(C)C)ccc1-2	<	6.52
CN1Cc2c(C(=O)OC(C)(C)C)ncn2-c2ccc(Br)cc2C1=O	=	7.94

====

# study_system: GABA-A receptor; anion channel
# measurement_protocol: Inhibition of [3H]flunitrazepam binding to GABA-A receptor of rat cerebral membranes
# Type: cell membranes, Membrane
measured_attribute: IC50 (nM)

smiles_str	measured_attribute	meas_value
C#Cc1ccc2c(c1)C(=O)N(C)Cc1c(C(=O)OC(C)(C)C)ncn1-2	IC50	79.8
